The reported measurements were obtained from patent US20240209089A1.

Biological target: T1, human CD8α full-length protein (human, UniProt P01732 22-235)
T1 construct: whole, on cells; The same entry is used for MC38-CD8α transfectants and for human CD8+ T cells from peripheral blood; the assay field says which cells; also called cell surface CD8α; MC38-CD8α cells
T1 sequence (P01732 22-235): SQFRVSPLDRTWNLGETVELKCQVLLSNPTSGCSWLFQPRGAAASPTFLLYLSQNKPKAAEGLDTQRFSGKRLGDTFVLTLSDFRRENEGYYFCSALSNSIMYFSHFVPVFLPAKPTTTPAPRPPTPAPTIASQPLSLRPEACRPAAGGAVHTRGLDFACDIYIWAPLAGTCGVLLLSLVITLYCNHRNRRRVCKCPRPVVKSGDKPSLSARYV
Assay: flow cytometry on MC38-CD8α cells, secondary antibody-PE
For each record, write down the corresponding Positive rate (%).
Answers are plain numbers, in %.

Consider the reported Positive rate (%) for these binders:
BINDER	Positive rate (%)
C27-cHis antibody (VHH, HEK293 construct; an E. coli preparation is also described) VHH: QLQLVESGGGLVQPGGSLRLSCVVSGSIFAINTMGWYRQAPGKQRELVATMHSGGSTNYADSVKGRFTISRDAAPKTVYLQMNSLKPADTAVYYCHADDSGWGTVDSWGQGIQVTVSS	93.6
C37-cHis antibody (VHH, HEK293 construct; an E. coli preparation is also described; Biotinylated for the ForteBio assay; also called C37-his; SNA006a) VHH: QLQLVESGGGLVQAGGSLRLSCAASGLTFEDYAIGWFRQAPGKEREGISCIRIYDGNTYSAESVKGRFTISSDNAKNQVYLQINTLKPEDTAVYYCAAGSYYSCSVYPDYDMDYWGKGTLVTVSS	99.8
C42-cHis antibody (VHH, HEK293 construct; an E. coli preparation is also described; Biotinylated for the ForteBio assay; also called SNA006b; SNA006-b) VHH: QVQLVESGGGLVQAGGSLRLSCAASGLTFEDYAIGWFRQAPGKEREGISCIRIYDGNTYSAESVKGRFTISSDNAKNQVYLQINTLKPEDTAVYYCAAGSYYSCSVYPDYDMDYWGKGTLVTVSS	99.9
C29-cHis antibody (VHH, HEK293 construct; an E. coli preparation is also described) VHH: QVQLVESGGGLVQAGGSLRLSCVASGFTSDDYVIGWFRQAPGKEREGVSCISSSDGTTNYADSVKGRFTISSDNAKNTVYLQMNSLKPEDTAVYYCAADPMRVCPYSGTYYGILGFGTSGQGTQVTVSS	98.4
anti-CD8α single domain antibody C30 (VHH, not shown: small tags and cut ends, Only the E. coli expression is described for this antibody) VHH: QVQLVESGGGLVQPGGSLRLSCVASGSIFAINTMGWYRQAPGKQRELVADMHSTGSTNYADSVKGRFTISRDNAKKKVYLQMNSLKPDDTAVYYCHVDDRGWGTVDSWGQGTQVTVSS	98.8
S5-cHis antibody (VHH, HEK293 construct; an E. coli preparation is also described; Biotinylated for the ForteBio assay; also called SNA006d; SNA006-d) VHH: QVQLVESGGGLVQAGGSLRVSCAASGGTFSSTAMGWFRQAPGKEREFVAAISWSGGYTYYADSVRGRFTISRDNALNTVSLQMNSLKPEDTAVYYCAADISGLDTVAAGIFTEPNIDYWGKGTLVTVSS	99.7
anti-CD8α single domain antibody S22 (VHH, not shown: small tags and cut ends, Only the E. coli expression is described for this antibody) VHH: QLQLVESGGGLVQPGGSLRLSCAASGSIFSINTMGWYRQAPGKQRELVATMHSTGSTNYADSVKGRFTISRDNAKKTVYLQMNSLKPDDTAVYYCHVDDMGWGTVDSWGQGTQVTVSS	97

Task item: Given S13-cHis antibody (VHH, HEK293 construct; an E. coli preparation is also described) VHH: QLQLVESGGGLVQPGGSLRLSCVVSGSIFAINTMGWYRQAPGKQRELVATMHSYGSTNYADSVKGRFTISRDNAKKTVYLQMNSLKPADTAVYYCHADDTGWGTVDSWGQGTQVTVSS , state its recorded Positive rate (%).
Reply: 96.3
